The reported numbers originate from paper PMC10268634.

Biological target: α-amylase (Homo sapiens, UniProt P04746)
Sequence (P04746 16-511): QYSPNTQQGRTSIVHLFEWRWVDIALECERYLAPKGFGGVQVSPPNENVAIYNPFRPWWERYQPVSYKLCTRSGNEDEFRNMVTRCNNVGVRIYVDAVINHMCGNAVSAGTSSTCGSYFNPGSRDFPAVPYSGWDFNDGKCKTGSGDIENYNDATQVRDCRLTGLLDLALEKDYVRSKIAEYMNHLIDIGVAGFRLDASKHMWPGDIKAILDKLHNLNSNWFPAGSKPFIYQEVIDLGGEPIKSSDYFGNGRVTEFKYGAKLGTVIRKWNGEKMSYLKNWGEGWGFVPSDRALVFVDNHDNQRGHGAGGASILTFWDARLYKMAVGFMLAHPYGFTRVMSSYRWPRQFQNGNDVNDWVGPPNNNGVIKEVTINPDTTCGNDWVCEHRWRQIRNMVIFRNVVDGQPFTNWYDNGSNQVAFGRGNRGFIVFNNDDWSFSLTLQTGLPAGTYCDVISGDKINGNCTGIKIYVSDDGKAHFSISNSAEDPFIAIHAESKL
parameter: IC50 (µM)

# compound, numeric-value
rows = [
    ("CC(=O)N1N=C(c2ccc(Cl)cc2)CC1c1cccs1 (stereo not shown)", 425),
    ("CC(=O)N1N=C(c2ccccc2)CC1c1ccccn1 (stereo not shown)", 663),
]

P: CC(=O)N1N=C(c2ccccc2)CC1c1ccccc1O (stereo not shown)
Q: COc1ccc(C2=NN(C(C)=O)C(c3ccco3)C2)cc1 (stereo not shown)
R: COc1ccc(C2CC(c3ccc(O)cc3)=NN2C(C)=O)cc1 (stereo not shown)
stdin: # rank by IC50, ascending (min first) Answer by writing out the labels in the requested order.
stdout: R, P, Q
(R: 0.551 µM, P: 188 µM, Q: 811 µM)
